Test system: IL-6
ASSAY COMMENT: Inhibition of IL-6 in LPS-stimulated human monocyte cells (THP-1), HTRF
Format: cell-based
CONDITION DETAILS: Homo sapiens; THP-1 cells, LPS 500 ng/mL, IL-6 by HTRF
We begin with a simple list: items and their reported EC50.
ENDPOINT NAME: EC50 (nM)

CC(C)CC(=O)Nc1cncc(-c2ccc3[nH]nc(-c4nc5c(N6CCCCC6)cncc5[nH]4)c3c2)c1: 103
Fc1ccccc1-c1cncc2[nH]c(-c3n[nH]c4ccc(-c5cncc(CN6CCCCC6)c5)cc34)nc12: 138
CCC(=O)Nc1cncc(-c2ccc3[nH]nc(-c4nc5c(-c6cccc(F)c6)cncc5[nH]4)c3c2)c1: 19
Fc1cccc(-c2cncc3[nH]c(-c4n[nH]c5ccc(-c6cccnc6)cc45)nc23)c1: 23
CC(C)C(=O)Nc1cncc(-c2ccc3[nH]nc(-c4nc5ccncc5[nH]4)c3c2)c1: 2260
CN1CCN(c2cncc3[nH]c(-c4n[nH]c5ccc(-c6cccnc6)cc45)nc23)CC1: 74
